Property: IC50; scope: individual compounds
System: T cells isolated from mouse spleens
Protocol Text: T cell proliferation (anti-CD3/anti-CD28 dynabeads, CCK-8 assay)
Assay type: cell-based
Conditions: 72 hours, read-out: Scoring: IC50, cell proliferation

Record excerpt, results attached:
compound=C[C@@H]1CC[C@@]2(OC1)O[C@H]1C[C@H]3[C@H](CO)[C@@H]([C@@]4(C)Cc5cn[nH]c5C[C@@H]4CO)CC[C@]3(C)[C@H]1[C@@H]2C assay_target="T cells isolated from mouse spleens" outcome_measure=IC50 obs_value="1.5 to 15 µM"
compound="CC[C@H](CC(O)[C@@H](C)[C@H]1CC[C@H]2[C@H](CO)[C@@H]([C@@]3(C)Cc4cn[nH]c4C[C@@H]3CO)CC[C@]12C)C(C)C (stereo partly drawn)" assay_target="T cells isolated from mouse spleens" outcome_measure=IC50 obs_value="1.5 to 15 µM"

Now take the following compound into account.
Given item `C[C@@H]1CC[C@@]2(OC1)O[C@H]1C[C@H]3[C@H](CN)[C@@H]([C@@]4(C)Cc5cn[nH]c5C[C@@H]4CO)CC[C@]3(C)[C@H]1[C@@H]2C` , the value recorded as its IC50 is 1.5 to 15 µM

---

Tested on: rat dorsal root ganglion (DRG) cells
Protocol Text: Rat dorsal root ganglion (DRG) excitability response to electrical field stimulation
Format: cell-based
Conditions: adult rat DRG cells, Ca5 Ca2+ indicator, six concentrations, highest typically 30 μM, read-out: Scoring: EC50, modulation of rat DRG excitability
Property: EC50; scope: individual compounds

Record excerpt, results attached:
sample_smiles=C[C@@H]1CC[C@@]2(OC1)O[C@H]1C[C@H]3[C@H](CN)[C@@H]([C@@]4(C)Cc5cn[nH]c5C[C@@H]4CO)CC[C@]3(C)[C@H]1[C@@H]2C outcome_measure=EC50 obs_value="6 to 15 µM"
sample_smiles=C=C1CC[C@H]2[C@H](CN)[C@@H]([C@@]3(C)Cc4cn(-c5ccc(OC)cc5)nc4C[C@@H]3CO)CC[C@]12C outcome_measure=EC50 obs_value="6 to 15 µM"
sample_smiles=C=C1CC[C@H]2[C@H](CN)[C@@H]([C@@]3(C)Cc4cnn(-c5ccc(Oc6ccc(C(=O)O)cc6)cc5)c4C[C@@H]3CO)CC[C@]12C outcome_measure=EC50 obs_value="> 15 µM"
sample_smiles=COc1ccc(Cn2cc3c(n2)C[C@H](CO)[C@@](C)([C@H]2CC[C@]4(C)[C@@H](C)CC[C@H]4[C@@H]2CN)C3)cc1 outcome_measure=EC50 obs_value="< 2 µM"

Given item `C=C1CC[C@H]2[C@H](CN)[C@@H]([C@@]3(C)Cc4cn(-c5ncc(F)cn5)nc4C[C@@H]3CO)CC[C@]12C` , the value recorded as its EC50 is 6 to 15 µM

Given item `C=C1CC[C@H]2[C@H](CN)[C@@H]([C@@]3(C)Cc4cnn(-c5ccc(F)cc5)c4C[C@@H]3CO)CC[C@]12C` , the value recorded as its EC50 is < 2 µM

Given item `C=C1CC[C@H]2[C@H](CN)[C@@H]([C@@]3(C)Cc4cnn(Cc5ccc(F)cc5)c4C[C@@H]3CO)CC[C@]12C` , the value recorded as its EC50 is < 2 µM

Given item `C=C1CC[C@H]2[C@H](CN)[C@@H]([C@@]3(C)Cc4cnn(-c5ccc(Oc6ccc(F)cc6)cc5)c4C[C@@H]3CO)CC[C@]12C` , the value recorded as its EC50 is < 2 µM

Given item `C=C1CC[C@H]2[C@H](CN)[C@@H]([C@@]3(C)Cc4cnn(-c5ccc(F)c(F)c5)c4C[C@@H]3CO)CC[C@]12C` , the value recorded as its EC50 is < 2 µM

Given item `C=C1CC[C@H]2[C@H](CN)[C@@H]([C@@]3(C)Cc4cnn(-c5ccc(Oc6ccccc6)cc5)c4C[C@@H]3CO)CC[C@]12C` , the value recorded as its EC50 is < 2 µM
